Every entry's value here was drawn from ChEMBL document CHEMBL2086224.

Experiment: Plasma concentration in VEGF stimulated-mouse at 10 mg/kg, po after 4 hrs
Assay type: ADME, organism-based
Parameters: dose 10 mg/kg, route oral
quantity name: concentration at 4 h (nM)

* CCN1CCC(Nc2ccc3c(c2)C(=C(c2ccc(Cl)cc2)c2ncc[nH]2)C(=O)N3)CC1 (mixture of isomers) | 20

###

Test: Oral bioavailability in rat
Assay type: ADME, organism-based
Conditions: in vivo
quantity name: bioavailability

• CCN1CCC(Nc2ccc3c(c2)C(=C(c2ccccc2)c2nc4cc(OC)ccc4[nH]2)C(=O)N3)CC1 (mixture of isomers) = 19%

###

Experiment: Drug uptake in human MDA-MB-231 cells xenografted mouse tumor at 100 mg/kg
Format: ADME, organism-based, Neoplasm
Set-up: dose 100 mg/kg
Settings: in vivo, read-out: Drug uptake
quantity name: concentration (µM)

- CCN1CCC(Nc2ccc3c(c2)C(=C(c2ccc(Cl)cc2)c2ncc[nH]2)C(=O)N3)CC1 (mixture of isomers): 8.8

###

Listing of recorded half-life by entry.
Experiment: Half life in rat at 10 mg/kg, po
Type: ADME, organism-based
Set-up: dose 10 mg/kg, route oral
Conditions: in vivo
quantity name: half-life (h)

- CCN1CCC(Nc2ccc3c(c2)C(=C(c2ccc(OC)cc2)c2nc4ccccc4[nH]2)C(=O)N3)CC1 (mixture of isomers): 7.5
- CCN1CCC(Nc2ccc3c(c2)C(=C(c2cc(F)cc(F)c2)c2nc4ccccc4[nH]2)C(=O)N3)CC1 (mixture of isomers): 3.8
- CCN1CCC(Nc2ccc3c(c2)C(=C(c2cccc(F)c2)c2ncc(C)[nH]2)C(=O)N3)CC1 (mixture of isomers): 4.6
- CCN1CCC(Nc2ccc3c(c2)C(=C(c2nc(C)c[nH]2)c2ccccc2F)C(=O)N3)CC1 (mixture of isomers): 2.3
- CCN1CCC(Nc2ccc3c(c2)C(=C(c2cccc(F)c2)c2ncc[nH]2)C(=O)N3)CC1 (mixture of isomers): 5.4
- CCN1CCC(Nc2ccc3c(c2)C(=C(c2ccccc2)c2ncc[nH]2)C(=O)N3)CC1 (mixture of isomers): 11.6
- CCN1CCC(Nc2ccc3c(c2)C(=C(c2ccccc2)c2nc4ccccc4[nH]2)C(=O)N3)CC1 (mixture of isomers): 5.7

###

Assay: Drug uptake in VEGF-stimulated mouse lung at 3 mg/kg, po after 4 hrs
Type: ADME, organism-based
Design: dose 3 mg/kg, route oral
Settings: read-out: Drug uptake
quantity name: concentration at 4 h (nM)

- CCN1CCC(Nc2ccc3c(c2)C(=C(c2ccc(Cl)cc2)c2ncc[nH]2)C(=O)N3)CC1 (mixture of isomers): 70

###

Experiment: Clearance in rat
Type: ADME, organism-based
Settings: in vivo
quantity name: clearance (mL/min/kg)

* CCN1CCC(Nc2ccc3c(c2)C(=C(c2ccccc2)c2nc4cc(OC)ccc4[nH]2)C(=O)N3)CC1 (mixture of isomers) | 108

###

Listing of recorded half-life by entry.
Assay: Half life in rat at 10 mg/kg, po
Type: ADME, organism-based
Set-up: dose 10 mg/kg, route oral
Conditions: in vivo
quantity name: half-life (h)

* CCN1CCC(Nc2ccc3c(c2)C(=C(c2cccc(F)c2)c2nc4ccccc4[nH]2)C(=O)N3)CC1 (mixture of isomers) | 4.4
* CCN1CCC(Nc2ccc3c(c2)C(=C(c2ccc(Cl)cc2)c2ncc[nH]2)C(=O)N3)CC1 (mixture of isomers) | 10.7
* CCN1CCC(Nc2ccc3c(c2)C(=C(c2cc(F)cc(F)c2)c2nc(C)c[nH]2)C(=O)N3)CC1 (mixture of isomers) | 7.2
* CCN1CCC(Nc2ccc3c(c2)C(=C(c2ccc(C)cc2)c2nc4ccccc4[nH]2)C(=O)N3)CC1 (mixture of isomers) | 4.6
